Test system: MKN1 cells, pERK
protocol: Inhibition of KRas phosphorylation of ERK (Cisbio HTRF Advanced pERK assay)
Format: cell-based
experimental context: Homo sapiens, MKN-1, 3 h, read-out: Inhibition (HTRF IC50 nM) of KRas-mediated Phosphorylation of ERK, MKN1
quantity measured: IC50 (nM)
One number for each entry, in nM.

Consider the worked cases shown below.
| molecule | quantity measured | units of measure | numeric readout |
| --- | --- | --- | --- |
| CC1(O)COCCN(c2nc(OC[C@@]34CCCN3C[C@H](F)C4)nc3c2CCN(c2cc(O)cc4ccc(F)c(Cl)c24)C3)C1 (stereo partly shown) | IC50 | nM | 78 |
| CCc1c(F)ccc2cc(O)cc(N3CCc4c(nc(OC[C@@]56CCCN5C[C@H](F)C6)nc4N4CC5CC(O)CC4C5)C3)c12 (stereo partly shown) | IC50 | nM | 159 |
| CCc1c(F)ccc2cc(O)cc(N3CCc4c(nc(OC[C@@]56CCCN5C[C@H](F)C6)nc4N4CCC(O)C(CO)CC4)C3)c12 (stereo partly shown) | IC50 | nM | 11 |

Lab note: next molecule to report on.
Given item CCc1c(F)ccc2cc(O)cc(N3CCc4c(nc(OC[C@@]56CCCN5C[C@H](F)C6)nc4N4CCOCC(n5cccn5)C4)C3)c12 (stereo partly shown) , the value recorded as its IC50 is 51
